# test target: vanilloid receptor 1 (VR1/TRPV1) of the rat species (Rattus norvegicus, UniProt O35433)
# Construct: The spinal column is removed from decapitated rats; from tissue; host or cells: primary cells dissociated from rat dorsal root ganglia
# Sequence (O35433 whole entry): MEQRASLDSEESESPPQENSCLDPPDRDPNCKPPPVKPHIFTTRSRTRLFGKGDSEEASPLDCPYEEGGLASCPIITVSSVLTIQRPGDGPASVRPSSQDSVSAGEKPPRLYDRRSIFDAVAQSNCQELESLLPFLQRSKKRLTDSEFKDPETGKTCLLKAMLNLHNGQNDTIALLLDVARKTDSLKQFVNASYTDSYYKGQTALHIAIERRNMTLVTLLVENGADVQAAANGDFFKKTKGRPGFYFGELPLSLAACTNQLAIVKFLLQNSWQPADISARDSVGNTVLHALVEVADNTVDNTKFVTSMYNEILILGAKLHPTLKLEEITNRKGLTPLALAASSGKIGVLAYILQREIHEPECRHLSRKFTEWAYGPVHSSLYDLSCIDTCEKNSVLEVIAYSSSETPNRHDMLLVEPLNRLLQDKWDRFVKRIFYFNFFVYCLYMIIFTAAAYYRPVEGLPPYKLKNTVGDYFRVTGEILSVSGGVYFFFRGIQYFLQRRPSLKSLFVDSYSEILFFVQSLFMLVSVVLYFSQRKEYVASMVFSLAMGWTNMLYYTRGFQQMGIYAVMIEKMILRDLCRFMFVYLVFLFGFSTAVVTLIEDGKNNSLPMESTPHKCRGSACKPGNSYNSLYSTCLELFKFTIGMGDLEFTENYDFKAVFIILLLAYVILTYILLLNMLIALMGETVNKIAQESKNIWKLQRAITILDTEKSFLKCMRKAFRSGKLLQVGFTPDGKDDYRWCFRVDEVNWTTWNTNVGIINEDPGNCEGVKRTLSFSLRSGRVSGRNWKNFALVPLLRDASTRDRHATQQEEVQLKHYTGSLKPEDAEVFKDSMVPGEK
# test protocol: FLIPR Ca2+ influx assay on rat dorsal root ganglia cells (pharmacological method I)
# Type: cell-based
# protocol conditions: table 4; capsaicin; read-out: Ki (rat) Cap.
Record form. Attribute: Ki. Fill in for each entry.
One number for each entry, in nM.

Study these solved cases before continuing.
compound: CC1CCN(c2nc(C(F)(F)F)ccc2CNC(=O)C(C)c2ccc(NS(C)(=O)=O)c(F)c2)CC1 (stereo not drawn)
readout type: Ki
reported value: 0.6
--
compound: COc1ccc(-c2nc(C(F)(F)F)ccc2CNC(=O)C(C)c2ccc(NS(C)(=O)=O)c(F)c2)cc1F (stereo not drawn)
readout type: Ki
reported value: 1.3
--
compound: CCC1CCN(c2cc(C(F)(F)F)ccc2CNC(=O)C(C)c2ccc(NS(C)(=O)=O)c(F)c2)CC1 (stereo not drawn)
readout type: Ki
reported value: 0.7

Quick one: give me Ki for each item below, same order please.
1. CC(C(=O)NCc1ccc(C(F)(F)F)nc1N1CCC(C#N)(c2ccccc2)CC1)c1ccc(NS(C)(=O)=O)c(F)c1 (stereo not drawn)
2. Cc1cc(C(C)C(=O)NCc2ccc(C(F)(F)F)nc2N2CCCCC2)ccc1NS(C)(=O)=O (stereo not drawn)
3. CC(C(=O)NCc1ccc(C(F)(F)F)nc1N1CCC(OC(=O)C(C)(C)C)CC1)c1ccc(NS(C)(=O)=O)c(F)c1 (stereo not drawn)

1: 4.5; 2: 0.6; 3: 1.5

----------
# test target: vanilloid receptor 1 (VR1/TRPV1) of the rat species (Rattus norvegicus, UniProt O35433)
# Construct: The spinal column is removed from decapitated rats; from tissue; host or cells: primary cells dissociated from rat dorsal root ganglia
# test protocol: FLIPR Ca2+ influx assay on rat dorsal root ganglia cells (pharmacological method I)
# Format: cell-based
# protocol conditions: table 4; capsaicin; read-out: Ki (rat) Cap.
# Procedure: I. Functional Investigation of the Vanilloid Receptor 1 (VR1/TRPV1 Receptor) The agonistic or antagonistic action of the substances to be investigated on the vanilloid receptor 1 (VR1/TRPV1) of the rat species may be determined by the following assay. […] The DRGs are in each case repeatedly suspended, drawn by means of a syringe through no. […] The resultant pellet is in each case resuspended in 250 μL of complete medium and the cell count determined. […]
readout type: Ki (nM)
Give bare numbers, in nM.

compound: CC(C(=O)NCc1ccc(C(C)(C)C)nc1OCc1ccccc1)c1ccc(NS(C)(=O)=O)c(F)c1 (stereo not drawn) [Example 237]
test target: vanilloid receptor 1 (VR1/TRPV1) of the rat species (Rattus norvegicus, UniProt O35433)
reported value: 2

Quick one: give me Ki for each item below, same order please.
1. CC(C(=O)NCc1ccc(C(F)(F)F)cc1OC1CCCCC1)c1ccc(NS(C)(=O)=O)c(F)c1 (stereo not drawn) [Example 238]
2. Cc1cc(C(C)C(=O)NCc2ccc(C(F)(F)F)nc2N2CCC(C(F)(F)F)CC2)ccc1NS(C)(=O)=O (stereo not drawn) [Example 195]
3. CC(C(=O)NCc1ccc(C(F)(F)F)nc1-c1ccccc1F)c1ccc(NS(C)(=O)=O)c(F)c1 (stereo not drawn) [Example 150]
4. CC(C)COc1nc(C(F)(F)Cl)ccc1CNC(=O)C(C)c1ccc(NS(C)(=O)=O)c(F)c1 (stereo not drawn) [Example 208]

1: 0.6; 2: 0.4; 3: 22.4; 4: 0.5

----------
# test target: vanilloid receptor 1 (VR1/TRPV1) of the rat species (Rattus norvegicus, UniProt O35433)
# Construct: The spinal column is removed from decapitated rats; from tissue; host or cells: primary cells dissociated from rat dorsal root ganglia
# test protocol: FLIPR Ca2+ influx assay on rat dorsal root ganglia cells (pharmacological method I)
# Assay type: cell-based
# protocol conditions: table 4; capsaicin; read-out: Ki (rat) Cap.
Ki under 1 nM gets Satisfied, anything at or over 1 nM gets Not satisfied.

A selection of reference data follows.
compound: CC(C(=O)NCc1ccc(C(F)(F)F)nc1OCc1ccc(Cl)cc1)c1ccc(NS(C)(=O)=O)c(F)c1 (centres unmarked)
test target: vanilloid receptor 1 (VR1/TRPV1) of the rat species (Rattus norvegicus, UniProt O35433)
class assignment: Not satisfied
//
compound: CC(C(=O)NCc1ccc(C(F)(F)F)nc1N1CCN(c2ccccc2)CC1)c1ccc(NS(C)(=O)=O)c(F)c1 (centres unmarked)
test target: vanilloid receptor 1 (VR1/TRPV1) of the rat species (Rattus norvegicus, UniProt O35433)
class assignment: Satisfied
//
compound: CC(C(=O)NCc1ccc(C(F)(F)F)cc1N1CCCCCC1)c1ccc(NS(C)(=O)=O)c(F)c1 (centres unmarked)
test target: vanilloid receptor 1 (VR1/TRPV1) of the rat species (Rattus norvegicus, UniProt O35433)
class assignment: Not satisfied

Lab log: compare recorded Ki with 1 nM; is it strictly lower for CC(C(=O)NCc1ccc(C(F)(F)F)nc1N1CC=CCC1)c1ccc(NS(C)(=O)=O)c(F)c1 (centres unmarked) ? Satisfied

----------
# test target: vanilloid receptor (VR1) (Homo sapiens)
# Construct: expressed in transfected cells; host or cells: CHO K1 cells (ECACC), stably transfected
# test protocol: FLIPR Ca2+ influx assay on CHO K1 cells transfected with the VR1 gene (pharmacological method II)
# Type: cell-based
# protocol conditions: table 4; capsaicin; read-out: Ki (human) Cap.
I'd appreciate it if you could label each record using Ki and these ranges: one = under 4 nM, two = from 4 nM up to 20 nM, three = 20 nM and over

Into which bin does this molecule go? CC(C(=O)NCc1ccc(C(F)(F)F)cc1N1CCN(c2ccccc2)CC1)c1ccc(NS(C)(=O)=O)c(F)c1 (centres unmarked) one

Into which bin does this molecule go? CCCCCc1nc(C(F)(F)F)ccc1CNC(=O)C(C)c1ccc(NS(C)(=O)=O)c(F)c1 (centres unmarked) one

----------
# test target: vanilloid receptor (VR1) (Homo sapiens, UniProt Q8NER1)
# Construct: expressed in transfected cells; host or cells: CHO K1 cells (ECACC), stably transfected
# Sequence (Q8NER1 whole entry): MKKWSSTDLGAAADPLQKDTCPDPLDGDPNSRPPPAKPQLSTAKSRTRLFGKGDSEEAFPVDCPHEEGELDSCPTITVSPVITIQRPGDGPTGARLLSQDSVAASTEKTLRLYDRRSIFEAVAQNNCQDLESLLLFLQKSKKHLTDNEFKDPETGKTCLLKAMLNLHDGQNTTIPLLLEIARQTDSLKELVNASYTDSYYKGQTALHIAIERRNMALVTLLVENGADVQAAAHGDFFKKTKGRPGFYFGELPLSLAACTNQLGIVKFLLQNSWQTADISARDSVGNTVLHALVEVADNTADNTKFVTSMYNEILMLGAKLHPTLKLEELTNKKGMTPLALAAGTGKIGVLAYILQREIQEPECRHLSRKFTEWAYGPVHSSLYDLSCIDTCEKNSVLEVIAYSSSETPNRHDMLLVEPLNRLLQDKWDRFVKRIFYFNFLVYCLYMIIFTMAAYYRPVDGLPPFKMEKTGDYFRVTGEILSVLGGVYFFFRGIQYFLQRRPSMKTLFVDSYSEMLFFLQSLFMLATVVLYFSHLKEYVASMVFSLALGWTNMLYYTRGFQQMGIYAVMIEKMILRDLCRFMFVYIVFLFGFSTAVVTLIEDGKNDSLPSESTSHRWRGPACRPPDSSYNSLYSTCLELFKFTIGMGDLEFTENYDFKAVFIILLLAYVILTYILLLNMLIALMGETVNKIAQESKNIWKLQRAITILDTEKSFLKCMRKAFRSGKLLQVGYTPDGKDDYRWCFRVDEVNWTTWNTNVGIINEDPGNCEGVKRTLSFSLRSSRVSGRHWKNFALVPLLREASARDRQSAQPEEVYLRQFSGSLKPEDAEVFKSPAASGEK
# test protocol: FLIPR Ca2+ influx assay on CHO K1 cells transfected with the VR1 gene (pharmacological method II)
# Type: cell-based
# protocol conditions: Table 2; displacement of capsaicin (100 nM), Cheng-Prusoff; read-out: Ki (human)
pKi: −log10 of the molar value.
Could you label it 1 (yes) if measured pKi is 8 or higher, and 0 (no) otherwise?

A selection of reference data follows.
molecule: CC(C(=O)NCc1ccc(C(F)(F)F)nc1OC1CCCC1)c1ccc(NS(C)(=O)=O)c(F)c1 (stereo not drawn) [Example 21]
class assignment: 1 (yes)
//
molecule: CC(C(=O)NCc1ccc(C(F)(F)F)cc1Cl)c1ccc(NS(C)(=O)=O)c(F)c1 (stereo not drawn) [Example 75]
class assignment: 1 (yes)
//
molecule: CC(C(=O)NCc1ccc(C(F)(F)F)nc1N1CCCC1)c1ccc(NS(C)(=O)=O)c(Cl)c1 (stereo not drawn) [Example 65]
class assignment: 1 (yes)
//
molecule: CC(C(=O)NCc1ccc(C(F)(F)F)nc1OC1CCCCC1)c1ccc(NS(C)(=O)=O)c(F)c1 (stereo not drawn) [Example 76]
class assignment: 1 (yes)

Determine whether this molecule has pKi no lower than 8: CC(C(=O)NCc1ccc(C(F)(F)F)nc1Br)c1ccc(NS(C)(=O)=O)c(F)c1 (stereo not drawn) [Example 6] 0 (no)

----------
# test target: VR1/TRPV1 receptor (Homo sapiens)
# test protocol: IC50 (human) after pH stimulus
# Type: cell-based
# protocol conditions: @ 1 μM; ne = no effect; read-out: inhibition in percent, IC50 (human) after pH stimulus
Record form. Attribute: inhibition at 1 µM. Fill in for each entry.
One number for each entry, in %.

Study these solved cases before continuing.
compound: CCCN(CCC)c1nc(C(F)(F)F)ccc1CNC(=O)C(C)c1ccc(NS(C)(=O)=O)c(C)c1 (centres unmarked)
inhibition at 1 µM [%]: 26
--
compound: CC(C(=O)NCc1ccc(C(C)(C)C)cc1N1CCCCC1)c1ccc(NS(C)(=O)=O)c(F)c1 (centres unmarked)
inhibition at 1 µM [%]: 70
--
compound: CC(C(=O)NCc1ccc(C(F)(F)F)cc1-c1cccc(F)c1)c1ccc(NS(C)(=O)=O)c(F)c1 (centres unmarked)
inhibition at 1 µM [%]: 41

Quick one: give me inhibition at 1 µM for each item below, same order please.
1. Cc1cccc(N2CCN(c3cc(C(F)(F)F)ccc3CNC(=O)C(C)c3ccc(NS(C)(=O)=O)c(F)c3)CC2)c1 (centres unmarked)
2. COc1ccc(-c2nc(C(F)(F)F)ccc2CNC(=O)C(C)c2ccc(NS(C)(=O)=O)c(F)c2)cc1OC (centres unmarked)
3. COc1cc(OC)cc(-c2cc(C(F)(F)F)ccc2CNC(=O)C(C)c2ccc(NS(C)(=O)=O)c(F)c2)c1 (centres unmarked)
4. CC(C(=O)NCc1ccc(C(F)(F)F)nc1-c1ccc(Cl)c(Cl)c1)c1ccc(NS(C)(=O)=O)c(F)c1 (centres unmarked)
5. CC(C(=O)NCc1ccc(C(F)(F)F)nc1OC1Cc2ccccc2C1)c1ccc(NS(C)(=O)=O)c(F)c1 (centres unmarked)
6. CC(C(=O)NCc1ccc(C(F)(F)F)nc1N1CCC(CN(C)C)(c2ccccc2)CC1)c1ccc(NS(C)(=O)=O)c(F)c1 (centres unmarked)
7. CC(C)COc1cc(C(C)(C)C)ccc1CNC(=O)C(C)c1ccc(NS(C)(=O)=O)c(F)c1 (centres unmarked)
8. CC(C(=O)NCc1ccc(C(F)(F)F)nc1N1CCCCC1C)c1ccc(NS(C)(=O)=O)c(F)c1 (centres unmarked)

69
8
52
51
74
51
62
51

Quick one: give me inhibition at 1 µM for each item below, same order please.
1. CC(C(=O)NCc1ccc(C(F)(F)F)cc1OC1CCCCC1)c1ccc(NS(C)(=O)=O)c(F)c1 (centres unmarked)
2. CC(C(=O)NCc1ccc(C(C)(C)C)nc1N1CCCC1)c1ccc(NS(C)(=O)=O)c(F)c1 (centres unmarked)
3. CCCCC(CCCC)Oc1nc(C(F)(F)F)ccc1CNC(=O)C(C)c1ccc(NS(C)(=O)=O)c(F)c1 (centres unmarked)

1. 55
2. 43
3. 27
